// provenance: patent US7378419B2

# Test system: SK-N-MC
# assay-overview: In vitro cytotoxicity, microculture tetrazolium assay, SK-N-MC
# Format: cell-based
# stated-conditions: Homo sapiens; SK-N-MC neuroblastoma, 48 hours exposure
attribute-measured: pIC50
Please note pIC50 is a logarithmic value: minus log10 of concentration in mol/L. Answer with that number alone.

Requested field: pIC50. Item: `COc1cc([C@@H]2c3cc4c(cc3[C@@H](NC3=CC(=O)N(C)C3=O)[C@H]3COC(=O)[C@H]23)OCO4)cc(OC)c1O` 6.97

###

# Tested on: KB-3-1
# assay-overview: In vitro cytotoxicity, microculture tetrazolium assay, KB-3-1
# Type: cell-based
# stated-conditions: KB-3-1 human epidermal carcinoma, 48 hours exposure
attribute-measured: pIC50
Please note pIC50 is a logarithmic value: minus log10 of concentration in mol/L. Answer with that number alone.

Reported pIC50 for KB-3-1, given COc1cc([C@@H]2c3cc4c(cc3[C@@H](NC3=CC(=O)N(C)C3=O)[C@H]3COC(=O)[C@H]23)OCO4)cc(OC)c1O [Example 2] ? 7.18

###

# maps each entry to its melting point

Recorded results for 5 compounds are shown here.
Requested field: melting point. Item: `COc1cc([C@@H]2c3cc4c(cc3[C@@H](NC3=CC(=O)N(CCCCCC(=O)O)C3=O)[C@H]3COC(=O)[C@H]23)OCO4)cc(OC)c1O` 150 to 152 °C

Requested field: melting point. Item: `COc1cc([C@@H]2c3cc4c(cc3[C@@H](NC3=CC(=O)N(Cc5ccc(F)cc5)C3=O)[C@H]3COC(=O)[C@H]23)OCO4)cc(OC)c1O[Si](C)(C)C(C)(C)C` 182 to 184 °C

Requested field: melting point. Item: `COc1cc([C@@H]2c3cc4c(cc3[C@@H](NC3=CC(=O)N(Cc5ccc(F)cc5)C3=O)[C@H]3COC(=O)[C@H]23)OCO4)cc(OC)c1O` 214 to 216 °C

Requested field: melting point. Item: `COc1cc([C@@H]2c3cc4c(cc3[C@@H](NC3=C(C)C(=O)N(C)C3=O)[C@H]3COC(=O)[C@H]23)OCO4)cc(OC)c1O` 172 to 176 °C

Requested field: melting point. Item: `COc1cc([C@@H]2c3cc4c(cc3[C@@H](NC3=CC(=O)N(Cc5ccc(NC(C)=O)cc5)C3=O)[C@H]3COC(=O)[C@H]23)OCO4)cc(OC)c1O[Si](C)(C)C(C)(C)C` 177 to 179 °C

New cases:
Requested field: melting point. Item: `C=CCN1C(=O)C=C(N[C@@H]2c3cc4c(cc3[C@@H](c3cc(OC)c(O)c(OC)c3)[C@H]3C(=O)OC[C@@H]32)OCO4)C1=O` 180 to 183 °C

Requested field: melting point. Item: `COc1cc([C@@H]2c3cc4c(cc3[C@@H](NC3=CC(=O)N(Cc5ccc(C(F)(F)F)cc5)C3=O)[C@H]3COC(=O)[C@H]23)OCO4)cc(OC)c1O` 184 to 186 °C

Requested field: melting point. Item: `COc1cc([C@@H]2c3cc4c(cc3[C@@H](NC3=CC(=O)N(Cc5ccc(NC(C)=O)cc5)C3=O)[C@H]3COC(=O)[C@H]23)OCO4)cc(OC)c1O` 200 to 204 °C (dec.)
